Numbers sourced from patent US20220119522A1.

system: T1, human TREM2 full length stalk region peptide (aa 129-172) (human, biotinylated (site not stated))
T1 construct: also called Human TREM2 peptide (aa 129-172); full-length TREM2 stalk peptide
T1 peptide: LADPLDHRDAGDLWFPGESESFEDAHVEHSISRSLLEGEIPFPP
assayName: ELISA on biotinylated peptide captured by streptavidin; A450 normalised to isotype control
Method: TREM2 antibodies were evaluated for binding to human and mouse TREM2 stalk region peptides. […] Antibody binding to TREM2 stalk peptides was detected using standard sandwich ELISA. Briefly, a 96-well half-area ELISA plate was coated with streptavidin overnight at 4° C. […] Antibodies bound to peptide were detected with anti-human kappa-HRP secondary antibody (Bethyl Laboratories, Inc.) diluted in 1% BSA/PBS. […]
Field 'label' (enum: YES / NO). Set to YES when fold over background (A450) is strictly under 10 fold; else NO.

Take a look at these entries with their results.
| binder | labelValue |
| --- | --- |
| CL0020162 (antibody, V domains shown, also called Clone CL0020162) VH: QIQLVQSGPELKKPGESLKISCKASGYTFTDYAMQWVKQAPEKGLQYMGWINTQTGKPTYADDFKERFVFSLETSATTAYLQINNLKNEDMATYFCVRSYNNYENWFAYWGQGTLVTVSS VL: DIVMTQSPSSLAVSAGETVTINCKSSQSLLYSGNQKNYLAWYQQKPGQSPKVLIYWASTRQFGVPDRFIGSGSGTDFTLTISSVQAEDLAIYYCQQYYNSPITFGSGTKLEIK | NO |
| CL0020308 (antibody, V domains shown, also called Clone CL0020308) VH: QVQLKQSGPSLVQPSQSLSITCTVSGFSLTTYGIHWVRQSPGKGLEWLGVIWTGGSTAFNAAFMSRLSITKDNSKSQVFFKMNSLQADDTAIYYCAKVGFHSATDYWGQGTSVTVSS VL: DVLMTQTPLSLPVTLGDQASISCRSSQNLVHSNGNTYLEWYLQKPGQSPKLLIYKVSNRFSGVPDRFSGSGSGTDFTLKISRVEAEDLGLYYCFQGSHVPFTFGSGTKLEIK | NO |
| CL0020205 (antibody, V domains shown, also called Clone CL0020205) VH: EVQLQQSGPVLVKPGASVKMSCKASGYTFTDYYVHWVKQSHGKSLEWIGLINPYTGTTSYNQRFRVKATLTVDKSSSTAYMEVNSLTSEDSAVYYCARSRVYYGSSLFAFWGQGTLVTVSA VL: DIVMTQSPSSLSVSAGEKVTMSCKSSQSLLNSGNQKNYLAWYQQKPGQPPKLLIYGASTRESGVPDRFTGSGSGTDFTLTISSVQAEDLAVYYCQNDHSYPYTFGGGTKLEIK | YES |
| CL0020139 (antibody, V domains shown, also called Clone CL0020139) VH: EVQLQQSGPELVKPGASVKMSCKAPGYSFTSYLMNWVKQKPGQGLEWIGYINPYSAGSNYNEKFKDKATLTSDKSSSTAYMELRSLTSEDSAVYFCARSSYRYGFDYWGQGTTLTVSS VL: DIQMTQSSSSFSVSLGDRVTITCKASEDIYNRLAWYQQKPGNAPRLLISGATSLETGVPSRFSGSGSGKDYTLSITSLQTEDVATYSCQQYWSTPWTFGGGTKLEIK | YES |

Please examine the following record next.
Bench note: check whether CL0020214 (antibody, V domains shown, also called Clone CL0020214) VH: QVRLQQSGAELVRPGSSVKLSCKASGYAFSSYWMNWVKQRPGQGLEWIGQIYPGDGDTNYNGNFKGKATLTADNSSSTAYMQLSSLTSEDSAVYFCARRRNGDFGDYAMDYWGQGTSVTVSS VL: QIVLTQSPAIMSASPGEKVTISCSASSSVSYMCWYQQKPGSSPKPWIYRTSTLASGVPARFSGSGSGTSYSLTISSMEAADAATYYCQHYHSYPFTFGAGTKLELK shows fold over background (A450) below 10 fold
YES
